Tested on: NCI-H23 lung
Assay: NCI tumour cell line growth inhibition, 48 h
Where a SMILES comes first, the peptide text is derived from it. The star is where a group is joined. Cbz = O=C(OCc1ccccc1)*
# TGI listing for each entry below
property: TGI

CC(NC(=O)Cc1ccccc1)NC(=O)C(C)C(=O)NCc1ccccc1 (stereo not drawn) | > 100 µM
Cc1ccc(C(=O)NCc2ccccc2)cc1N=NN(C)C | > 100 µM
COc1ccc2c(c1)C(C)Cc1c(ncnc1-n1cnc3ccccc31)N2C (stereo not drawn) | 18.2 µM
COc1cc2c(cc1OC)C1Cc3cc(OC)c(OC)cc3N1CC2 (stereo not drawn) | > 100 µM
Cc1cc(NCCCCNc2ccnc3cc(Cl)ccc23)nc(Nc2ccc(C(=O)N3CCCCC3)cc2)n1 | 5.73 µM
COc1cc(/C=C2\CCC/C(=C\c3ccc(OCC4CO4)c(OC)c3)C2=O)ccc1OCC1CO1 (stereo not drawn) | 9.71 µM
C[P+](C)(C)c1ccccc1 | > 100 µM
O=C(Cn1c2ccc(Br)cc2c2nc3ccccc3nc21)NNC(=S)NC1CCCCC1 | 30.5 µM
COc1ccc(/C=N/N=C(\N)NO)c(OC)c1C | 60.6 µM
O=C(N/N=C/c1ccc(O)cc1O)c1cccnc1 | > 100 µM
CC(=O)NC1CONC1=O (stereo not drawn) | > 100 µM
CCOC(=O)c1sc(NC(=O)COc2cccc(/C=C3\CCc4cc(OC)ccc4C3=O)c2)nc1C | > 100 µM
NC(N)=N/N=C(\N=Nc1ccccc1)c1ccc(Cl)cc1 | 30 µM
COc1ccc(-c2nn(-c3cccc(Cl)c3)cc2-c2nc(N)[nH]c(=O)c2C#N)cc1 | 46.2 µM
C=CCCC1(C)CCCNC1=S (stereo not drawn) | > 100 µM
CC(=O)OC(CCC1(C)OC1COc1ccc(CCNC(=O)C=C(C)C)cc1)C(C)(C)OC(C)=O (stereo not drawn) | > 100 µM
O=C1CC(=O)NC(=NN2C(=O)/C(=C/c3ccc(Cl)c(Cl)c3)N=C2c2ccccc2)N1 | > 100 µM
COc1cccc(-c2nc(-c3cnccn3)n(C/C=C/c3ccccc3)n2)c1 | > 10 µM
CC(=O)OCC1OC(n2c(C)c(N=Nc3ccc(Cl)cc3)c(C)c(C#N)c2=S)C(OC(C)=O)C(OC(C)=O)C1OC(C)=O (stereo not drawn) | > 100 µM
COc1ccc(C2(CC(C)C)CCN(S(=O)(=O)c3ccc(C)cc3)C2)cc1OC (stereo not drawn) | > 100 µM
NC(CCc1ncc(C(=O)O)s1)C(=O)O (stereo not drawn) | > 100 µM
Cc1ccc2c(c1-c1ccccc1)C(=O)OC2 | > 100 µM
C=C(C)[C@@H]1CC[C@]2(C)[C@H](CC[C@@H]3[C@@H]([C@@](C)(O)CCC=C(C)C)CC[C@]32C)[C@@]1(C)CCC(=O)O | 35.6 µM
C1=NC(N(Cc2ccccc2)Cc2ccccc2)N(Cc2ccccc2)N1 (stereo not drawn) | 54.9 µM
CCOC(=O)CCC(NC(=O)C(Cc1ccccc1)NC(=O)OCc1ccccc1)C(=O)OCC (stereo not drawn) (Cbz-Phe-Glu(OEt)-OEt; configuration not given here) | 33.1 µM
NC1(CCNC(=O)c2ccccc2)CCN(C(=O)c2ccccc2)CC1 | > 100 µM
c1ccc2c(c1)OCCOCCOc1ccccc1OCCO2 | > 100 µM
CC1(C)O[C@H]2OC(CO)C(N=[N+]=[N-])[C@H]2O1 (stereo partly drawn) | > 100 µM
CS(=O)(=O)N1CC(CCl)c2ccc(O)cc21 (stereo not drawn) | 7.6 µM
CCCn1cnc2c(SCc3ccc(Cl)cc3)nc(N)nc21 | > 100 µM
Cc1c2c(C(N)=O)nccc2c(C)c2c1c1ccccc1n2Cc1ccccc1 | 78.8 µM
C=CC1(CC[C@]2(c3ccc(OC)c(OC)c3)C=[N+]([O-])O[C@H](O[C@@H]3CCCC[C@H]3C(C)(C)c3ccccc3)C2)OCC(C)(C)CO1 | > 100 µM
CCOC(=O)c1sc2nc(SC)nc(Nc3ccc4c(c3)OCCO4)c2c1N | 36.5 µM
CCCCCCCCCCCCCCCCCCC1=C(O)C(=O)C=C(OC)C1=O | > 100 µM
COC(=O)N[C@H](C(=O)NC(OCc1ccccc1)C1COC(C)(C)O1)C(C)O[Si](C)(C)C(C)(C)C (stereo partly drawn) | > 100 µM
O=C(CCN1CCOCC1)Nc1cccc(-n2cc(-c3ccncc3)c(-c3ccc(Cl)c(O)c3)n2)c1 | 18.6 µM
COC(=O)[C@@H](NC(=O)N(Cc1ccccc1)C[C@H](CC(C)C)NC(=O)[C@@H](NC(=O)OC(C)(C)C)C(C)C)C(C)C | > 100 µM
Nc1ccc(C2=N/C(=C\c3cccc(N)c3)C(=O)O2)cc1 | > 100 µM
